The measurements presented in this section are drawn from ChEMBL document CHEMBL1128521.

Biological target: GABA-A receptor; anion channel
pIC50: −log10 of the molar value.
Please note: condition met applies when pIC50 is 5 or greater, and condition not met applies otherwise.

Tell me whether pIC50 is at least 5 here: O=C(O)CCC1CCNCC1
condition not met

* * *

This section lists IC50 readings for GABA-A receptor; anion channel.

Please review the entries below; each comes with its answer.
[
  {
    "testSmiles": "O=C(O)/C=C/C1CCNCC1",
    "result": "52 µM"
  },
  {
    "testSmiles": "O=C(O)C1=CCNCC1",
    "result": "0.022 µM"
  },
  {
    "testSmiles": "Oc1cc(C2CCNCC2)sn1",
    "result": "1.3 µM"
  },
  {
    "testSmiles": "O=C(O)/C=C/C1=CCNCC1",
    "result": "> 100 µM"
  },
  {
    "testSmiles": "O=C(O)CCC1=CCNCC1",
    "result": "> 100 µM"
  }
]

Give recorded IC50 with GABA-A receptor; anion channel for the following molecule: Oc1cc(C2=CCNCC2)on1
32 µM

Give recorded IC50 with GABA-A receptor; anion channel for the following molecule: Oc1cc(C2CCNCC2)no1
26 µM
